experiment: chemical genetic growth profiling, strain panel (AID 1159580);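 further: tested at 20 µM; growth read once vehicle control cultures reached saturation at 30 °C; 1 = growth at the plate median or of vehicle wells; lower values mean less growth of the strain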; conditions: S. cerevisiae deletion strains, growth OD, locus YHR087W, strain rtc3, active compounds read low
Hit rate of the full screen: of about 5,500 compounds, about 2,000 (36%) were called active. Not shown: some 18% with an inconclusive outcome. Some of the results follow.
# reported normalized growth; entries follow

# Compound, normalized growth
data = [
    ("CCOC(=O)c1cnc(SCC(=O)c2ccc(Cl)cc2Cl)[nH]1", "1.01 (inactive)"),
    ("O=C(NNC(=O)c1ccc[nH]1)Nc1cc(Cl)cc(Cl)c1", "1.02 (inactive)"),
    ("CCCc1ccc(-c2nc(-c3ccc(C)cc3)no2)cc1", "0.984 (inactive)"),
    ("Cc1cc(Oc2c([N+](=O)[O-])cc(C(F)(F)F)cc2[N+](=O)[O-])c2c(Cl)ccc(C)c2n1", "0.834 (active)"),
    ("CC(C)(C)S(=O)(=O)c1cnc(N)nc1N", "1 (inactive)"),
    ("CCCc1ccc(/C(C)=N\\O)cc1", "0.909 (active)"),
    ("Nc1c(Cl)cc(C(=O)Nc2cc(Cl)cc(Cl)c2)cc1Cl", "0.935 (inactive)"),
    ("Cc1cc(NC(=O)Nc2cccc(C(F)(F)F)c2)n(C)n1", "0.989 (inactive)"),
    ("Cc1ccc(NC(=S)C(C#N)C(=O)N2CCCC2)c(C)c1 (stereo unspecified)", "1.01 (inactive)"),
    ("N=C(N)SCc1c(F)cccc1Cl", "0.978 (inactive)"),
    ("CCCCC#Cc1ccc(C(=O)NNC(=O)Nc2cc(Cl)cc(Cl)c2)o1", "1.01 (inactive)"),
    ("Cc1onc(-c2c(Cl)cccc2Cl)c1C(=O)N1CCN(c2ncnc3scc(-c4ccccc4)c23)CC1", "1.01 (inactive)"),
    ("COC(=O)C(Cc1c[nH]c2ccccc12)NC(=O)c1c(Cl)cccc1Cl (stereo unspecified)", "0.985 (inactive)"),
    ("COc1ccccc1C1CCN(c2ncnc3scc(-c4ccccc4)c23)CC1", "0.976 (inactive)"),
    ("Cc1cc(C(F)(F)F)n2nc(-c3ccc(C(C)(C)C)cc3)cc2n1", "1.01 (inactive)"),
    ("C/C(=N/O)c1ccc2c(c1)C(C)(C)CCC2(C)C", "0.977 (inactive)"),
]

---

assay: chemical genetic growth profiling, strain panel (AID 1159580);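 further: tested at 20 µM; growth read once vehicle control cultures reached saturation at 30 °C; 1 = growth at the plate median or of vehicle wells; lower values mean less growth of the strain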; conditions: S. cerevisiae deletion strains, growth OD, locus YDL101C, strain DUN1, active compounds read low
About 2,000 (36%) of roughly 5,500 compounds were called active. Another 18% or so got no clear call; they are omitted. This is one part of the list.

# Molecule, normalized growth
records = [
    ("CC(=O)OC[C@@]1(O)C[C@@]23CCC4c5ccoc5CC[C@]4(C)C2CC[C@@H]1C3 (stereo partly specified)", 0.986),
    ("CC(C)Sc1c(Cl)cccc1NC(=O)Nc1cccc(C(F)(F)F)c1", 0.98),
    ("Cc1ccc(S(=O)(=O)N2CCC(C(c3ccccc3)c3ccccc3)CC2)cc1", 0.975),
    ("CC(=O)Nc1ccc(S(=O)(=O)NCCCN2CCN(Cc3ccccc3)CC2)cc1Cl", 0.952),
    ("O=C1c2cccc(O)c2C(=O)c2c(O)cccc21", 0.616),
    ("Cc1cc(O)c2c(c1)C(=O)c1cc(O)cc(O)c1C2=O", 0.732),
    ("Cc1cc(NC(=O)Nc2cccc(C(F)(F)F)c2)n(C)n1", 0.983),
    ("CC(C)N=C(N)N=C(N)Nc1ccc(Cl)cc1", 1.01),
    ("Cc1ccc(S(=O)(=O)N2CCN(CCOc3ccccc3)CC2)cc1", 0.992),
    ("Cc1cc(O)c2c(c1)C(=O)c1cccc(O)c1C2=O", 0.997),
    ("O=C(O)c1cccc([N+](=O)[O-])c1C(=O)Nc1ccc(F)cc1", 1.01),
]
